Let's look at some molecules and their measured minimum inhibitory concentration.
Tested on: Histophilus somni
Assay: minimum inhibitory concentration (MIC)
Conditions: isolate (source animal id): 250

Some molecules with known minimum inhibitory concentration results, for comparison:
entry_smiles=CN1C[C@@H]2C[C@H]1CN2c1cc2c(cc1F)c(=O)c(C(=O)O)cn2C1CC1 reported="≤ 0.12 µg/mL"
entry_smiles=CC1(C)S[C@@H]2[C@H](NC(=O)[C@H](N)c3ccccc3)C(=O)N2[C@H]1C(=O)O reported="≤ 0.25 µg/mL"

Looking up NC[C@@H]1O[C@H](O[C@H]2[C@@H](O)[C@H](O[C@@H]3[C@@H](O)[C@H](N)C[C@H](N)[C@H]3O[C@H]3O[C@H](CN)[C@@H](O)[C@H](O)[C@H]3N)O[C@@H]2CO)[C@H](N)[C@@H](O)[C@@H]1O , I found its minimum inhibitory concentration recorded as 32 µg/mL

----------
Let's look at some compounds and their measured minimum inhibitory concentration.
System: Enterococcus spp.
Assay: minimum inhibitory concentration (MIC)
Conditions: isolate (source animal id): 246

entry_smiles=CCCN1C[C@H](C)[C@@H](O)[C@](C)(O)[C@@H](CC)OC(=O)[C@H](C)[C@@H](O[C@H]2C[C@@](C)(OC)[C@@H](O)[C@H](C)O2)[C@H](C)[C@@H](O[C@@H]2O[C@H](C)C[C@H](N(C)C)[C@H]2O)[C@](C)(O)C[C@H]1C target_under_test="Enterococcus spp." reported="≤ 1 µg/mL"

Looking up CC1(C)S[C@@H]2[C@H](NC(=O)[C@H](N)c3ccccc3)C(=O)N2[C@H]1C(=O)O , I found its minimum inhibitory concentration recorded as 1 µg/mL

Looking up NC[C@@H]1O[C@H](O[C@H]2[C@@H](O)[C@H](O[C@@H]3[C@@H](O)[C@H](N)C[C@H](N)[C@H]3O[C@H]3O[C@H](CN)[C@@H](O)[C@H](O)[C@H]3N)O[C@@H]2CO)[C@H](N)[C@@H](O)[C@@H]1O , I found its minimum inhibitory concentration recorded as 16 µg/mL

Looking up CN[C@@H]1[C@H](O)[C@H](NC)[C@H]2O[C@@]3(O)C(=O)C[C@@H](C)O[C@H]3O[C@@H]2[C@H]1O , I found its minimum inhibitory concentration recorded as 64 µg/mL

Looking up CC[C@H]1OC(=O)C[C@@H](O)[C@H](C)[C@@H](O[C@@H]2O[C@H](C)[C@@H](O)[C@H](N(C)C)[C@H]2O)[C@@H](CCN2CCCCC2)C[C@@H](C)C(=O)/C=C/C(C)=C/[C@@H]1CN1CCCCC1 , I found its minimum inhibitory concentration recorded as 16 µg/mL

----------
Let's look at some compounds and their measured minimum inhibitory concentration.
Test system: Enterococcus spp.
Assay: minimum inhibitory concentration (MIC)
Settings: isolate (source animal id): 289

Some compounds with known minimum inhibitory concentration results, for comparison:
compound="COc1cc(Cc2cnc(N)nc2N)cc(OC)c1OC.Cc1cc(NS(=O)(=O)c2ccc(N)cc2)no1 [trimethoprim-sulfamethoxazole]" reported="≤ 2 µg/mL"
compound="C=C[C@]1(C)C[C@@H](OC(=O)CSCCN(CC)CC)[C@]2(C)[C@H](C)CC[C@]3(CCC(=O)[C@H]32)[C@@H](C)[C@@H]1O [Tiamulin]" reported="> 32 µg/mL"
compound="CS(=O)(=O)c1ccc([C@@H](O)[C@@H](CF)NC(=O)C(Cl)Cl)cc1 [Florfenicol]" reported="2 µg/mL"
compound="COc1cc(NS(=O)(=O)c2ccc(N)cc2)nc(OC)n1 [sulfadimethoxine]" reported="> 256 µg/mL"
compound="CN(C)[C@@H]1C(O)=C(C(N)=O)C(=O)[C@@]2(O)C(O)=C3C(=O)c4c(O)cccc4[C@@](C)(O)[C@H]3C[C@@H]12 [Tetracycline]" reported="≤ 0.5 µg/mL"
compound="CCN1CCN(c2cc3c(cc2F)c(=O)c(C(=O)O)cn3C2CC2)CC1 [Enrofloxacin]" reported="0.5 µg/mL"
compound="CC1(C)S[C@@H]2[C@H](NC(=O)[C@H](N)c3ccccc3)C(=O)N2[C@H]1C(=O)O [Ampicillin]" reported="≤ 0.25 µg/mL"

Below: the item to evaluate.
Looking up CCCN1C[C@H](C)[C@@H](O)[C@](C)(O)[C@@H](CC)OC(=O)[C@H](C)[C@@H](O[C@H]2C[C@@](C)(OC)[C@@H](O)[C@H](C)O2)[C@H](C)[C@@H](O[C@@H]2O[C@H](C)C[C@H](N(C)C)[C@H]2O)[C@](C)(O)C[C@H]1C [Gamithromycin] , I found its minimum inhibitory concentration recorded as ≤ 1 µg/mL

----------
Test system: Mannheimia haemolytica
Experiment: minimum inhibitory concentration (MIC)
Conditions: isolate (source animal id): 28
Let's look at some compounds and their measured minimum inhibitory concentration.
# number only, unit µg/mL dropped from output

Some compounds with known minimum inhibitory concentration results, for comparison:
compound=CO/N=C(\C(=O)N[C@@H]1C(=O)N2C(C(=O)O)=C(CSC(=O)c3ccco3)CS[C@H]12)c1csc(N)n1 endpoint_label="minimum inhibitory concentration" reported=2
compound=C=C[C@]1(C)C[C@@H](OC(=O)CSCCN(CC)CC)[C@]2(C)[C@H](C)CC[C@]3(CCC(=O)[C@H]32)[C@@H](C)[C@@H]1O endpoint_label="minimum inhibitory concentration" reported=32
compound=CCC[C@@H]1C[C@@H](C(=O)N[C@@H]([C@H]2O[C@H](SC)[C@H](O)[C@@H](O)[C@H]2O)[C@H](C)Cl)N(C)C1 endpoint_label="minimum inhibitory concentration" reported=16

Below: the item to evaluate.
Looking up CNC(C)C1CCC(N)C(OC2C(N)CC(N)C(OC3OCC(C)(O)C(NC)C3O)C2O)O1 (stereo not drawn) , I found its minimum inhibitory concentration recorded as 2

----------
System: Histophilus somni
Assay: minimum inhibitory concentration (MIC)
Conditions: isolate (source animal id): 200
Let's look at some compounds and their measured minimum inhibitory concentration.
# number only, unit µg/mL dropped from output

# lookup: CNC(C)C1CCC(N)C(OC2C(N)CC(N)C(OC3OCC(C)(O)C(NC)C3O)C2O)O1 (centres undefined) on Histophilus somni, minimum inhibitory concentration = 8

# lookup: CC[C@H]1OC(=O)C[C@@H](O)[C@H](C)[C@@H](O[C@@H]2O[C@H](C)[C@@H](O[C@H]3C[C@@](C)(O)[C@@H](O)[C@H](C)O3)[C@H](N(C)C)[C@H]2O)[C@@H](CC=O)C[C@@H](C)C(=O)/C=C/C(C)=C/[C@@H]1CO[C@@H]1O[C@H](C)[C@@H](O)[C@@H](OC)[C@H]1OC on Histophilus somni, minimum inhibitory concentration = 8

# lookup: CCCNC[C@]1(O)[C@H](C)O[C@@H](O[C@H]2[C@H](C)[C@@H](O[C@@H]3O[C@H](C)C[C@H](N(C)C)[C@H]3O)[C@](C)(O)C[C@@H](C)CN[C@H](C)[C@@H](O)[C@](C)(O)[C@@H](CC)OC(=O)[C@@H]2C)C[C@@]1(C)OC on Histophilus somni, minimum inhibitory concentration = 16

# lookup: C=C[C@]1(C)C[C@@H](OC(=O)CSCCN(CC)CC)[C@]2(C)[C@H](C)CC[C@]3(CCC(=O)[C@H]32)[C@@H](C)[C@@H]1O on Histophilus somni, minimum inhibitory concentration = 2

----------
Test system: Mannheimia haemolytica
Experiment: minimum inhibitory concentration (MIC)
Conditions: isolate (source animal id): 302
Let's look at some compounds and their measured minimum inhibitory concentration.

compound=CC[C@H]1OC(=O)C[C@@H](O)[C@H](C)[C@@H](O[C@@H]2O[C@H](C)[C@@H](O[C@H]3C[C@@](C)(O)[C@@H](O)[C@H](C)O3)[C@H](N(C)C)[C@H]2O)[C@@H](CC=O)C[C@@H](C)C(=O)/C=C/C(C)=C/[C@@H]1CO[C@@H]1O[C@H](C)[C@@H](O)[C@@H](OC)[C@H]1OC target_under_test="Mannheimia haemolytica" reported="> 32 µg/mL"

Looking up CC[C@H]1OC(=O)C[C@@H](O)[C@H](C)[C@@H](O[C@@H]2O[C@H](C)[C@@H](O)[C@H](N(C)C)[C@H]2O)[C@@H](CCN2C[C@H](C)C[C@H](C)C2)C[C@@H](C)C(=O)/C=C/C(C)=C/[C@@H]1CO[C@@H]1O[C@H](C)[C@@H](O)[C@@H](OC)[C@H]1OC , I found its minimum inhibitory concentration recorded as > 16 µg/mL

Looking up CN1C[C@@H]2C[C@H]1CN2c1cc2c(cc1F)c(=O)c(C(=O)O)cn2C1CC1 , I found its minimum inhibitory concentration recorded as 0.5 µg/mL

Looking up CNC(C)C1CCC(N)C(OC2C(N)CC(N)C(OC3OCC(C)(O)C(NC)C3O)C2O)O1 (stereo unspecified) , I found its minimum inhibitory concentration recorded as 2 µg/mL

Looking up CS(=O)(=O)c1ccc([C@@H](O)[C@@H](CF)NC(=O)C(Cl)Cl)cc1 , I found its minimum inhibitory concentration recorded as > 8 µg/mL

Looking up CN[C@@H]1[C@H](O)[C@H](NC)[C@H]2O[C@@]3(O)C(=O)C[C@@H](C)O[C@H]3O[C@@H]2[C@H]1O , I found its minimum inhibitory concentration recorded as 32 µg/mL
